Hey, just so you know, these numbers are from patent US20200148774A1.

system.under.test: T1, recombinant cynomolgus CLL-1 extracellular domain (ECD, amino acids 65-265) fused to an N-terminal Flag (cynomolgus monkey)
T1 construct: Construct stated for the immunogen; also called CynoCLL-1 Flag; cynoCLL-1
T1 chain: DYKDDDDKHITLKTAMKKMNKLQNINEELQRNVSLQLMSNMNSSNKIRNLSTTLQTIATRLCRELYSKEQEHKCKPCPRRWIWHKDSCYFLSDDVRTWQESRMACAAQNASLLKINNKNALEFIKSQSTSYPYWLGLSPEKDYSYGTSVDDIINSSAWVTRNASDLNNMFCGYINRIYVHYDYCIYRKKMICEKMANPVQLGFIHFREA
experiment.description: SPR (Biacore T200), IgG captured by anti-human Fc, CLL-1 as analyte
readout.kind: koff (s⁻¹)
Only the number, expressed in s⁻¹, is required.

A selection of reference data follows.
INSERT INTO assay_data (binder, unit_info, recorded_number) VALUES
  ('21C9.L2H3D54 (antibody, V domains shown) VH: EVQLVQSGAEVKKPGASVKVSCKASGYTFTDYYLDWVRQAPGQGLEWIGRVNPYDGGTIYNQKFKGRVTLTRDTSTSTAYLELSSLRSEDTAVYYCARDHYRYDPLLDYWGQGTLVTVSS VL: DIQMTQSPSSLSASVGDRVTITCKASQDVSTAVAWFQQKPGKAPKLLIYSPSYRYTGVPSRFSGSGSGTDFTLTISSLQPEDFATYYCQQLYSTPYTFGQGTKVEIK', 's⁻¹', 0.00885),
  ('6E7.L4H1eS54 (antibody, V domains shown, IgG) VH: EVQLVQSGAEVKKPGASVKVSCKASGYSFTDYYMHWVRQAPGQGLEWIGRINPYSGAAFYSQNFKDRVTLTVDTSTSTAYLELSSLRSEDTAVYYCAIERGADLEGYAMDYWGQGTLVTVSS VL: DIQMTQSPSSLSASVGDRVTITCRASQSVSTSSYNYMHWYQQKPGKPPKLLIKYASNLESGVPSRFSGSGSGTDFTLTISSLQPEDFATYYCQHSWEIPLTFGQGTKVEIK', 's⁻¹', 0.00327);

// returns reported koff for input 21C9.L2H3A54 (antibody, V domains shown) VH: EVQLVQSGAEVKKPGASVKVSCKASGYTFTDYYLDWVRQAPGQGLEWIGRVNPYAGGTIYNQKFKGRVTLTRDTSTSTAYLELSSLRSEDTAVYYCARDHYRYDPLLDYWGQGTLVTVSS VL: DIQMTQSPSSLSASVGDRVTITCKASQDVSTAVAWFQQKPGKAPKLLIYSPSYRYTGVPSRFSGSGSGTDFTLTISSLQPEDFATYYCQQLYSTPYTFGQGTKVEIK
0.0215

Also 6E7.L4H1e (antibody, V domains shown, humanized, assessed in the form of an IgG; also called humanized 6E7.L4H1e; h6E7) VH: EVQLVQSGAEVKKPGASVKVSCKASGYSFTDYYMHWVRQAPGQGLEWIGRINPYNGAAFYSQNFKDRVTLTVDTSTSTAYLELSSLRSEDTAVYYCAIERGADLEGYAMDYWGQGTLVTVSS VL: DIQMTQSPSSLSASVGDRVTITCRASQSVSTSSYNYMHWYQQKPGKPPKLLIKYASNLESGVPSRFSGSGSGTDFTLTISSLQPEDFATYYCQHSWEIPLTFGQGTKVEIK , if possible.
0.00181

Follow-up item: 6E7.L4H1eD54 (antibody, V domains shown, IgG; also called h6E7D; H6E7.L4H1D54) VH: EVQLVQSGAEVKKPGASVKVSCKASGYSFTDYYMHWVRQAPGQGLEWIGRINPYDGAAFYSQNFKDRVTLTVDTSTSTAYLELSSLRSEDTAVYYCAIERGADLEGYAMDYWGQGTLVTVSS VL: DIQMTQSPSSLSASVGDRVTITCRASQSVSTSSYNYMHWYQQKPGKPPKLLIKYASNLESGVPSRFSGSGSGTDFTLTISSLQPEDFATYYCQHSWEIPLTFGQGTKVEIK
0.00869

# iterate: 21C9.L2H3S54 (antibody, V domains shown) VH: EVQLVQSGAEVKKPGASVKVSCKASGYTFTDYYLDWVRQAPGQGLEWIGRVNPYSGGTIYNQKFKGRVTLTRDTSTSTAYLELSSLRSEDTAVYYCARDHYRYDPLLDYWGQGTLVTVSS VL: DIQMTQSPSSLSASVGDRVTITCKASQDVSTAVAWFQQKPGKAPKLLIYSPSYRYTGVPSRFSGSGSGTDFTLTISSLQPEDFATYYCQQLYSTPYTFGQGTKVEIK
0.0207

Note, next up: 21C9.L2H3E54 (antibody, V domains shown) VH: EVQLVQSGAEVKKPGASVKVSCKASGYTFTDYYLDWVRQAPGQGLEWIGRVNPYEGGTIYNQKFKGRVTLTRDTSTSTAYLELSSLRSEDTAVYYCARDHYRYDPLLDYWGQGTLVTVSS VL: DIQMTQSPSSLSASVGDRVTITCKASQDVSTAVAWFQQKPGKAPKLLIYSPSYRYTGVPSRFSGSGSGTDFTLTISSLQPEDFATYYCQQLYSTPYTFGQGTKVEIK
0.0371

How about 6E7.L4H1eE54 (antibody, V domains shown, IgG) VH: EVQLVQSGAEVKKPGASVKVSCKASGYSFTDYYMHWVRQAPGQGLEWIGRINPYEGAAFYSQNFKDRVTLTVDTSTSTAYLELSSLRSEDTAVYYCAIERGADLEGYAMDYWGQGTLVTVSS VL: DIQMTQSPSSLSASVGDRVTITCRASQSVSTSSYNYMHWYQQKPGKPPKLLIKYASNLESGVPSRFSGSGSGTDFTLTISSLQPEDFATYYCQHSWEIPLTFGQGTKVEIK ?
0.00283
